assay details: n-octanol/water partition coefficient (experimental Log P)
Format: physicochemical
assay context: 37 °C, read-out: Log Pexp., experimental Log P
observed property: logP at 24 h

- CCCN1CCCC[C@H]1C(=O)Nc1c(C)cccc1C: 1.88

====

System: porcine liver esterase
assay details: liver esterase stability study of ROP-ST
Assay type: in vitro ADME
assay context: pig, porcine liver esterase solution; 20 U/mL porcine liver esterase, pH 8.0, 25 °C
observed property: half-life at 100 µM (h)

- CCCCCCCCCCCCCCCCCC(=O)OCN(C(=O)C1CCCCN1CCC)c1c(C)cccc1C (stereo not shown): 3.09

====

assay details: plasma stability study of ROP-ST
Assay type: in vitro ADME, rat
assay context: 0% rat plasma (saline solution without rat plasma), 25 °C
observed property: half-life at 100 µM (h)

- CCCCCCCCCCCCCCCCCC(=O)OCN(C(=O)C1CCCCN1CCC)c1c(C)cccc1C (stereo not shown): 82.2

// provenance: paper PMC11768344
